Item-by-item account of S/N
tgt: LRP6 E1E2 protein (human) (UniProt O75581)
Sequence (O75581 20-630 limits assumed): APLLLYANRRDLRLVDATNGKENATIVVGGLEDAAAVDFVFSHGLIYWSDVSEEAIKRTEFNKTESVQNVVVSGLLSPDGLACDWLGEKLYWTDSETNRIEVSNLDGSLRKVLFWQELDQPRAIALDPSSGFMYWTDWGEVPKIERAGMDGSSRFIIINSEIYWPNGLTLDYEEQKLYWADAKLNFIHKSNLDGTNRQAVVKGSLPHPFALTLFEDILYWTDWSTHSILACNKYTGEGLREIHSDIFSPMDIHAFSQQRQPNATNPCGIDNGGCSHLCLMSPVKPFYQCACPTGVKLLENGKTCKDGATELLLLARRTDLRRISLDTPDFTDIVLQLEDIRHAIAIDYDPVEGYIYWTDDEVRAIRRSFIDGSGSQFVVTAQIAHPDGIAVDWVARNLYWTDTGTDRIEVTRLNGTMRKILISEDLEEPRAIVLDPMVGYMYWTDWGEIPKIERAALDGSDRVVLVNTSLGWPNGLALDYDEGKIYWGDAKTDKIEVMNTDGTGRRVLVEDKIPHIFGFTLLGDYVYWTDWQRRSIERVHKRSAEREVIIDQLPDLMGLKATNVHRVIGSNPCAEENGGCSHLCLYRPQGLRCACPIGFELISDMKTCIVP
protocol: spot phage ELISA
Write the value as a bare number.

Please supply the value of reported S/N for the item GCSRNSIKCKQDSDCLAGCVCASGSSCG (designed binder) [LRP6_CKP16]
31.1
